Data provenance is PubChem BioAssay AID1159580.

method-notes: chemical genetic growth profiling, strain panel (AID 1159580);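 note: tested at 20 µM; growth read once vehicle control cultures reached saturation at 30 °C; lower values mean less growth of the strain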
setup-conditions: S. cerevisiae deletion strains, growth OD, locus YGR252W, strain gcn5, active compounds read low
Out of some 5,500 compounds screened, about 2,000 (36%) were called active. Not shown: some 18% with an inconclusive outcome. Some of the results follow.
Classify: true when normalized growth is strictly less than 1; false when normalized growth is not.

compound	assigned-label
COc1ccc(C2Sc3ccccc3N(CCN(C)C)C(=O)C2OC(C)=O)cc1 (stereo unspecified)	false
CC(C)=CC1C(C(=O)O)C1(C)C (stereo unspecified)	false
OC[C@H]1O[C@@](CO)(O[C@@H]2O[C@H](CO)[C@@H](O)[C@H](O)[C@H]2O)[C@@H](O[C@@H]2O[C@H](CO)[C@@H](O)[C@H](O)[C@H]2O)[C@@H]1O	false

Let's switch to this compound now.
Record `CC1=CC(=O)c2ccccc2C1=O` : is its normalized growth strictly below 1?
true
